assay: Acute toxicity in ICR mouse assessed as survival rate at 50 mg/kg, ip measured after 14 days relative to control; format: organism-based; conditions: in vivo, time 14 day
attribute-measured: survival at 336 h

Quick one: survival at 336 h of `COc1cc(-n2cnc3ccc(-c4ccc(C)c(N)c4)nc32)cc(OC)c1OC` ?
100%

---

assay: Antiproliferative activity against human HUVEC cells assessed as cell viability at 30 to 60 nM measured after 6 hrs by MTT assay relative to control; format: toxicity, cell-based; conditions: dose 30-60 nM, read-out: Activity
attribute-measured: viability at 6 h, 0.06 µM

Quick one: viability at 6 h, 0.06 µM of `COc1cc(-n2cnc3ccc(-c4ccc(C)c(N)c4)nc32)cc(OC)c1OC` ?
> 90%

// provenance: ChEMBL document CHEMBL5523751
